Listed here are binders together with their documented fold repression.
measured-on: T1, ECF15_524
T1 chain: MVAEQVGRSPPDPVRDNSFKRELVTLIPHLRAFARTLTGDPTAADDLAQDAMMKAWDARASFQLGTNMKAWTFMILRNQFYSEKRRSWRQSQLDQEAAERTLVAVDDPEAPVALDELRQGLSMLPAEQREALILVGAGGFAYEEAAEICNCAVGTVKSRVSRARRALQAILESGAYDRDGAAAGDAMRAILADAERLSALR

{"binder": "AS04_1609 (protein) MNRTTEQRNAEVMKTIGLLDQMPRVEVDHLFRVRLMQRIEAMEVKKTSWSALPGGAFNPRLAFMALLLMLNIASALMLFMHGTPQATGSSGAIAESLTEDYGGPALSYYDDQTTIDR", "fold repression": 2.88}
{"binder": "AS22_1147 (protein) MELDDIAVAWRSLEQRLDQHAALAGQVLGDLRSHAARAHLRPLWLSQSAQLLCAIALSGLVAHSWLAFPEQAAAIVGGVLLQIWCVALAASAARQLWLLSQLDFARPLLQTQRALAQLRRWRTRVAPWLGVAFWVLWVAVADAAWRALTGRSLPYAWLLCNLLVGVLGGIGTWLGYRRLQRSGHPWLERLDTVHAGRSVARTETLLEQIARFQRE", "fold repression": 2.65}
{"binder": "AS27_1331 (protein) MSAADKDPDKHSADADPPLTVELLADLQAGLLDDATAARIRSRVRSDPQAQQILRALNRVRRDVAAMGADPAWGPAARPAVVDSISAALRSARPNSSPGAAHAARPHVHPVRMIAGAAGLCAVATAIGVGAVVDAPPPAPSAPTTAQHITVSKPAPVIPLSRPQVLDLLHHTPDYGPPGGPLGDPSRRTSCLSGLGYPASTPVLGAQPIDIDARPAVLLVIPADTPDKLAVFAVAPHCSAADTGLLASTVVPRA", "fold repression": 3.38}
{"binder": "AS30_35 (protein) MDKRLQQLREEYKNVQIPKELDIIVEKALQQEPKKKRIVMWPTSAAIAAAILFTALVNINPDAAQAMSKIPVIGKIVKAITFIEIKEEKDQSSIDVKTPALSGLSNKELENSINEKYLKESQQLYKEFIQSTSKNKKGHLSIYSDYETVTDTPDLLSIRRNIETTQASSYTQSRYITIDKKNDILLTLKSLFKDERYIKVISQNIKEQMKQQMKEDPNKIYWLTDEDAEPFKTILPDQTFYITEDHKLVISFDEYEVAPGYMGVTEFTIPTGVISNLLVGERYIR", "fold repression": 1.74}
{"binder": "AS20_992 (protein) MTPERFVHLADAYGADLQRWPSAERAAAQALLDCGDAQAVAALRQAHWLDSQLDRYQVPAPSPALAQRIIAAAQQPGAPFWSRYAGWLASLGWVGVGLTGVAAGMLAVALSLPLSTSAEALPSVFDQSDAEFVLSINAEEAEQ", "fold repression": 1.58}
{"binder": "AS31_34 (protein) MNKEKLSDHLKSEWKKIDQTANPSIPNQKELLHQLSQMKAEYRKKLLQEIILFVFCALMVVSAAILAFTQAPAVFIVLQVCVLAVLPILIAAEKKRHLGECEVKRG", "fold repression": 2.19}
{"binder": "AS01_3473 (protein) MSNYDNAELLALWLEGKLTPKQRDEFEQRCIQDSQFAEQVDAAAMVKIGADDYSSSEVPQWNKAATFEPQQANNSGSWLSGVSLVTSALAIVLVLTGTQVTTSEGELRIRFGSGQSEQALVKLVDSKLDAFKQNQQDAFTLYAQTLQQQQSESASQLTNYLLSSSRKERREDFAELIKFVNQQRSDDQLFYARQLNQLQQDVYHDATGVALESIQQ", "fold repression": 1.61}
{"binder": "AS22_4450 (protein) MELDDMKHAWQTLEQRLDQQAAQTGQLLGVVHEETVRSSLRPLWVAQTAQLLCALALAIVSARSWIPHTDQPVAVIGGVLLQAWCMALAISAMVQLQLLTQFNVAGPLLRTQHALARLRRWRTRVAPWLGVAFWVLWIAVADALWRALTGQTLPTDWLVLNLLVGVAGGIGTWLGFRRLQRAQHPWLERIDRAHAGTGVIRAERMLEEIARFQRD", "fold repression": 1.53}
{"binder": "AS37_2513 (protein) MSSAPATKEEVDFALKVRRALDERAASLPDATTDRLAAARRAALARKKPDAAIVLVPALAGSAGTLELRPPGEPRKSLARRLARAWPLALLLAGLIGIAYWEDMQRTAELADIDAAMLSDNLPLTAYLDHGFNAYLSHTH", "fold repression": 4.06}
{"binder": "AS33_423 (protein) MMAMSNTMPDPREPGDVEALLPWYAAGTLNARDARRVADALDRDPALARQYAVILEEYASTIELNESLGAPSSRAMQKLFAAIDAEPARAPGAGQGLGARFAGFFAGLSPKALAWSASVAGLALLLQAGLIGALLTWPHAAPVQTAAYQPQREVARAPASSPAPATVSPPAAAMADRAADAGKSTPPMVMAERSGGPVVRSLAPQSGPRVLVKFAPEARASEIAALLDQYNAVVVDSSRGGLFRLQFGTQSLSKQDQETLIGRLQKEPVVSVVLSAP", "fold repression": 9.15}
{"binder": "AS03_1244 (protein) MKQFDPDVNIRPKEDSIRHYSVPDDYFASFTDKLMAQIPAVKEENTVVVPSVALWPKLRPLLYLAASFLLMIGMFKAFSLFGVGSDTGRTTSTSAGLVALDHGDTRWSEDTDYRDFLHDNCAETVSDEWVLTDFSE", "fold repression": 2.14}

Every entry's value here was drawn from paper PMC3817407.
